Reported Excitation max before binding values follow for various molecules
# experimental-target: aggregated Aβ(1-42) peptides (Homo sapiens, UniProt P05067)
# Construct: preaggregated Aβ(1-42) peptides
# Sequence (P05067 672-713 limits assumed): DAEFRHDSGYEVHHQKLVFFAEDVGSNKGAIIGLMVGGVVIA
# assay-info: Fluorescence spectra before and after mixing with preaggregated Aβ(1-42) (Cmpds 8a-8d, 11, 14, 19)
# Type: binding
# assay-conditions: 4 μM compound in PBS, without Aβ, 25° C.
endpoint-name: Excitation max before binding (nm)

{"molecule": "CCCCN(CCCC)c1ccc(C=C(C#N)C(=O)OCCOCCOCCOC)cc1 (stereo in doubt) [Cmpd 8d]", "u": "nm", "measured": 432}
{"molecule": "CN(C)c1ccc(/C=C(\\C#N)C(=O)OCC(O)CO)cc1 (stereo not drawn) [Cmpd 14]", "u": "nm", "measured": 437}
{"molecule": "CCN(CC)c1ccc(C=C(C#N)C(=O)OCCOCCOCCOC)cc1 (stereo in doubt) [Cmpd 8c]", "u": "nm", "measured": 445}
{"molecule": "COCCOCCOCCOC(=O)/C(C#N)=C/c1ccc(N(C)C)cc1 [Cmpd 8a]", "u": "nm", "measured": 439}
{"molecule": "COCCOCCOCCOC(=O)/C(C#N)=C/c1ccc(N(C)C)cc1OC [Cmpd 8b]", "u": "nm", "measured": 442}
{"molecule": "COCCOCCOCCOC(=O)/C(C#N)=C/c1ccc2cc(N3CCCCC3)ccc2c1 [Cmpd 11]", "u": "nm", "measured": 445}

###

# experimental-target: aggregated Aβ(1-42) peptides (Homo sapiens)
# Construct: preaggregated Aβ(1-42) peptides
# assay-info: Fluorescence of probes 27-31, 33 before and after mixing with aggregated Aβ42
# Assay type: binding
# assay-conditions: 4 μM probe, 5 μM aggregated Aβ(1-42)
Reported Em. max (nm) after values follow for various molecules

{"molecule": "COCCOCCOCCOC(=O)/C(C#N)=C/c1ccc2cc(N3CCN(C)CC3)ccc2c1", "Em. max (nm) after": 530}
{"molecule": "COCCOCCOCCOC(=O)/C(C#N)=C/c1ccc2cc(N3CCOCC3)ccc2c1", "Em. max (nm) after": 525}
{"molecule": "COCCOCCOCCOC(=O)/C(C#N)=C/c1ccc2cc(NCCN3CCOCC3)ccc2c1", "Em. max (nm) after": 540}
{"molecule": "N#C/C(=C\\c1ccc2cc(N3CCCCC3)ccc2c1)C(=O)OCC(O)CO (stereo not shown)", "Em. max (nm) after": 535}

###

# experimental-target: aggregated Aβ(1-42) peptides (Homo sapiens, UniProt P05067)
# Construct: preaggregated Aβ(1-42) peptides
# assay-info: Fluorescence of probes 27-31, 33 before and after mixing with aggregated Aβ42
# Type: binding
# assay-conditions: 4 μM probe, 5 μM aggregated Aβ(1-42)
endpoint-name: Exc. max (nm) after

{"compound": "COCCOCCOCCOC(=O)/C(C#N)=C/c1ccc2cc(N3CCN(C)CC3)ccc2c1", "measured": "385 nm"}
{"compound": "COCCOCCOCCOC(=O)/C(C#N)=C/c1ccc2cc(N3CCOCC3)ccc2c1", "measured": "380 nm"}
{"compound": "COCCOCCOCCOC(=O)/C(C#N)=C/c1ccc2cc(NCCN3CCOCC3)ccc2c1", "measured": "430 nm"}
{"compound": "N#C/C(=C\\c1ccc2cc(N3CCCCC3)ccc2c1)C(=O)OCC(O)CO (stereo not shown)", "measured": "410 nm"}
